meta.source: ChEMBL document CHEMBL4689842

Test system: HEK-293T
ASSAY_PROTOCOL: Multiplex assay against HEK293T
Type: toxicity, cell-based
SETTINGS: human, 48 h, 10 µM, compound concentration 10 uM, replicate 2
ASSAY_METRIC: Population Normal (%)
API: value field is a number in %; no unit string.

These recorded examples may help you get a feel for the data.
1) CCOC(=O)Nc1cc(-c2ccc(C)c(NS(C)(=O)=O)c2)nn2c(C)nnc12 | 97
2) Cc1ccccc1C(c1ccccc1C)N1C2CCC1CC(O)(c1ccccc1)C2 (centres undefined) | 97
3) CCCSc1nc(N[C@@H]2C[C@H]2c2ccc(F)c(F)c2)c2nnn([C@@H]3C[C@H](OCCO)[C@@H](O)[C@H]3O)c2n1 | 94
4) CN1CCN(Cc2ccc(Nc3ncc(Cl)c(Nc4ccccc4S(=O)(=O)N(C)C)n3)cc2)CC1 | 93
5) C[C@]12CC[C@@H]3c4ccc(O)cc4CC[C@H]3[C@@H]1CC[C@@H]2O | 95

Query (compound): `COc1cc(Nc2nccc(-c3cnn4nc(OC)ccc34)n2)cc(C(F)(F)F)c1` ; field requested: Population Normal (%)
90

Query (compound): O=C(c1cc2c(cc1F)OC(c1ccc(F)cc1)(c1ccc(Cl)cc1Cl)O2)N1CCOCC1 (centres undefined) ; field requested: Population Normal (%)
91

Query (compound): `Cl.O=C(O)c1cc(-c2ccc(C3CCNCC3)cc2)c2ccc(-c3ccc(C(F)(F)F)cc3)cc2c1` ; field requested: Population Normal (%)
72

Query (compound): `Cc1ccc(C)c(Oc2ccncc2C(=O)N2CCN(C3CC3)c3ccccc32)c1` ; field requested: Population Normal (%)
90

Query (compound): `CC(C)Oc1ccccc1C(=O)Nc1ccccc1C(=O)Nc1cccc(S(=O)(=O)C(F)(F)F)c1` ; field requested: Population Normal (%)
94

Query (compound): COc1cc2ncn(-c3cc(OCc4ccccc4C(F)(F)F)c(C(N)=O)s3)c2cc1OC [GW843682X] ; field requested: Population Normal (%)
95
